Values from PubChem BioAssay

- experimental-system: Botulinum neurotoxin type A (Clostridium botulinum)
- assay-protocol: BoNT/A light chain protease inhibitors, biochemical, multiplex microsphere flow cytometry, validation set (AID 588460)
- measurement-parameters: at 10 µM, hits give high values
attribute-measured: inhibition (%)
Numbers only here, please. The scale is %.

Readout inhibition for CN/C(=C/[N+](=O)[O-])NCCSCc1ccc(CN(C)C)o1 , test system Botulinum neurotoxin type A (Clostridium botulinum), was 0.1

Readout inhibition for O=C(CN1C(=O)C2CCc3[nH]c4ccccc4c3C2C1=O)N1CCCC1 (stereo unspecified) , test system Botulinum neurotoxin type A (Clostridium botulinum), was 1.1

Readout inhibition for O=C(O)c1cc(-c2ccccc2)nc2ccccc12 , test system Botulinum neurotoxin type A (Clostridium botulinum), was -0.1

Readout inhibition for CCNC(=O)C12CCC(C)(C(=O)O1)C2(C)C (stereo unspecified) , test system Botulinum neurotoxin type A (Clostridium botulinum), was -1

Readout inhibition for COc1ccc(Cc2nc(-c3ccc(Br)cc3)no2)cc1 , test system Botulinum neurotoxin type A (Clostridium botulinum), was -1.6

Readout inhibition for COc1ccc(CC(=O)c2c(O)cc(O)cc2O)cc1OC , test system Botulinum neurotoxin type A (Clostridium botulinum), was 1.7
